The origin of these recorded values is patent US7582649B2.

# TARGET_OR_SYSTEM: kappa opioid receptor (Homo sapiens, UniProt P41145)
# Sequence (P41145 whole entry): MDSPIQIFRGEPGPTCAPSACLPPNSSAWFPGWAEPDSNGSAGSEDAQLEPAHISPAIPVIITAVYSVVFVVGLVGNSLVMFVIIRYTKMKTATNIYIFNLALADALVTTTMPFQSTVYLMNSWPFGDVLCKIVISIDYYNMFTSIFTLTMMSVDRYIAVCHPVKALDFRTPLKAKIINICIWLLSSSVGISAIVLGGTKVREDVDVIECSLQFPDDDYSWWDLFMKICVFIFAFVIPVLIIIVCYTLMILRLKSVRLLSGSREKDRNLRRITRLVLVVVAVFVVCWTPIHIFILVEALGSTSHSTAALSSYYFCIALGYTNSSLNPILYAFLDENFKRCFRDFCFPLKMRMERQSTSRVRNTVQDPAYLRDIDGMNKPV
# PROTOCOL_SUMMARY: Filtration binding assay: kappa opioid receptor
MEASUREMENT_KIND: log10 of IC50 (log10 of the value in nM)
Please note: log10 values; quantity IC50; unit nM.

Consider the following illustrative entries.
1) CC(C)(C)N(Cc1ccccc1)C[C@H](O)CN1CN(c2ccc(F)cc2)C2(CCN(Cc3cccc4ccccc34)CC2)C1=O [compound 250] ... 2.58
2) Cc1cccc2cccc(CN3CCC4(CC3)C(=O)N(C[C@H](O)CN(Cc3ccccc3)C(C)(C)C)CN4c3ccc(F)cc3)c12 [compound 389] ... 3.99
3) O=C1N(C[C@@H](O)CNCc2ccc(Cl)cc2Cl)CN(c2ccc(F)cc2)C12CCN(CC1CCCCCCC1)CC2 [compound 31] ... 2.45
4) O=C1N(C[C@@H](O)CNCCN2CCOCC2)CN(c2ccc(F)cc2)C12CCN(Cc1cccc3ccccc13)CC2 [compound 251] ... 2.65
5) CCOc1ccccc1NC[C@H](O)CN1CN(c2ccc(F)cc2)C2(CCN(CC3CCCCCCC3)CC2)C1=O [compound 281] ... 2.98

State its log10 of IC50 for this compound: O=C1N(C[C@@H](O)CNCc2cc(F)ccc2F)CN(c2ccc(F)cc2)C12CCN(CC1CCCCCCC1)CC2 [compound 12] 2.30

###

# TARGET_OR_SYSTEM: delta opioid receptor (Homo sapiens, UniProt P41143)
# Sequence (P41143 whole entry): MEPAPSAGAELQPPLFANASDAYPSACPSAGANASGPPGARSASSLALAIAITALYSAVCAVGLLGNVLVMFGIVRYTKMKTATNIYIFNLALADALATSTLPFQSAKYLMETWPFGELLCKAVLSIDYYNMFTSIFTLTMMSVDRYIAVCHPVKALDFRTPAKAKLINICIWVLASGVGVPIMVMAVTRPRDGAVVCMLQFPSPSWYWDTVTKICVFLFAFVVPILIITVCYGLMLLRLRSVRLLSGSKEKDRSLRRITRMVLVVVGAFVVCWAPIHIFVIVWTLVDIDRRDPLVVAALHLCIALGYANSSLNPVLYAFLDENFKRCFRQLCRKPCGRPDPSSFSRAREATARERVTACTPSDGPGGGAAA
# PROTOCOL_SUMMARY: Filtration binding assay: delta opioid receptor
pKi: −log10 of the molar value. Structures can show the parent of a compound that is named as a salt.
Listed next: entries and their corresponding pKi.

1. Cc1cccc2cccc(CN3CCC4(CC3)C(=O)N(CC(O)CN3CCC(N(C)C(=O)OC(C)(C)C)C3)CN4c3ccc(F)cc3)c12 (stereo not drawn) [compound 721] ... < 5.30
2. Cc1cccc2cccc(CN3CCC4(CC3)C(=O)N(C[C@H](O)CN3CC[C@@H](NC(=O)OC(C)(C)C)C3)CN4c3ccc(F)cc3)c12 [compound 710] ... < 5.30

State its pKi for this molecule: NC[C@@H](O)CN1CN(c2ccccc2)C2(CCN([C@H]3CC[C@@H]4CCCc5cccc3c54)CC2)C1=O [Compound #640, dihydrochloride] < 5.30

###

# TARGET_OR_SYSTEM: delta opioid receptor (Homo sapiens, UniProt P41143)
# PROTOCOL_SUMMARY: Filtration binding assay: delta opioid receptor
# EXPERIMENTAL_CONTEXT: mean where tested more than once; read-out: Delta IC50
pIC50: −log10 of the molar value.
Listed next: entries and their corresponding pIC50.

1. CC(=O)NC(CSC[C@H](O)CN1CN(c2ccc(F)cc2)C2(CCN(CC3CCCCCCC3)CC2)C1=O)C(=O)O (some centres unmarked) ... < 5.00

Now for a further molecule.
State its pIC50 for this molecule: CN(C)C[C@@H](O)CN1CN(c2ccc(F)cc2)C2(CCN([C@@H]3Cc4cccc5cccc3c45)CC2)C1=O < 6.00

###

# TARGET_OR_SYSTEM: mu opioid receptor (Homo sapiens)
# PROTOCOL_SUMMARY: Filtration binding assay: mu opioid receptor
Listed next: entries and their corresponding pIC50.
Entry type: numeric. Quantity: pIC50, the -log10 of concentration in molar units.

1) O=C1N(C[C@@H](O)CNCC23CC4CC(CC(C4)C2)C3)CN(c2ccc(F)cc2)C12CCN(CC1CCCCCCC1)CC2 [compound 17] ... 6.19

State its pIC50 for this compound: O=C1N(C[C@@H](O)CNCCc2ccccc2)CN(c2ccc(F)cc2)C12CCN(CC1CCCCCCC1)CC2 [Compound #11] 6.09

State its pIC50 for this compound: CCCCN(Cc1ccccc1)C[C@H](O)CN1CN(c2ccc(F)cc2)C2(CCN(Cc3c(C)c(C)c(C)c(C)c3C)CC2)C1=O [Compound #280] 5.60

State its pIC50 for this compound: COc1ccc(CCN(C)C[C@@H](O)CN2CN(c3ccc(F)cc3)C3(CCN([C@@H]4Cc5cccc6cccc4c56)CC3)C2=O)cc1OC [Compound #339] 6.68

State its pIC50 for this compound: O=C1N(C[C@@H](O)CNCc2ccc(F)cc2F)CN(c2ccc(F)cc2)C12CCN(CC1CCCCCCC1)CC2 [Compound #7] 5.86

###

# TARGET_OR_SYSTEM: kappa opioid receptor (Homo sapiens, UniProt P41145)
# PROTOCOL_SUMMARY: Filtration binding assay: kappa opioid receptor
Quick rule for you: IC50 under 0.5 µM gets y, anything else gets n.

Examples from the recorded data:
1) COc1ccc(CCNC[C@@H](O)CN2CN(c3ccc(F)cc3)C3(CCN(C4Cc5cccc6cccc4c56)CC3)C2=O)cc1OC (mixture of isomers) ... y
2) O=C(O)c1ccc(CNC[C@H](O)CN2CN(c3ccc(F)cc3)C3(CCN(CC4CCCCCCC4)CC3)C2=O)cc1 ... n
3) O=C1N(C[C@@H](O)CNCc2ccc(Br)cc2)CN(c2ccc(F)cc2)C12CCN(CC1CCCCCCC1)CC2 ... y

# ---- query compound ----
Bench note: check whether COC(=O)c1ccc(CNC[C@H](O)CN2CN(c3ccc(F)cc3)C3(CCN(C4Cc5cccc6cccc4c56)CC3)C2=O)cc1 (mixture of isomers) shows IC50 below 0.5 µM n

###

Listed next: entries and their corresponding IC50.
# TARGET_OR_SYSTEM: kappa opioid receptor (Homo sapiens, UniProt P41145)
# PROTOCOL_SUMMARY: Filtration binding assay: kappa opioid receptor
Respond numerically; units are nM and should not be typed.

State IC50 (kappa opioid receptor (Homo sapiens, UniProt P41145)) of O=C1N(C[C@@H](O)CN2CCN(c3cccc(C(F)(F)F)c3)CC2)CN(c2ccc(F)cc2)C12CCN(CC1CCCCCCC1)CC2 [Compound #66] . 130

State IC50 (kappa opioid receptor (Homo sapiens, UniProt P41145)) of COc1ccc(CCNC[C@H](O)CN2CN(c3ccc(F)cc3)C3(CCN(Cc4cccc5ccccc45)CC3)C2=O)cc1OC [compound 253] . 400

State IC50 (kappa opioid receptor (Homo sapiens, UniProt P41145)) of COc1ccc(CCN(C)C[C@@H](O)CN2CN(c3ccc(F)cc3)C3(CCN([C@@H]4Cc5cccc6cccc4c56)CC3)C2=O)cc1OC [Compound #339] . 180

State IC50 (kappa opioid receptor (Homo sapiens, UniProt P41145)) of O=C1N(C[C@@H](O)CNc2ccncc2)CN(c2ccc(F)cc2)C12CCN(CC1CCCCCCC1)CC2 [Compound #36] . 230

###

# TARGET_OR_SYSTEM: kappa opioid receptor (Homo sapiens)
# PROTOCOL_SUMMARY: Filtration binding assay: kappa opioid receptor
MEASUREMENT_KIND: IC50

Consider the following illustrative entries.
1) CCN(C)C[C@H](O)CN1CN(c2ccc(F)cc2)C2(CCN(Cc3cccc4cccc(C)c34)CC2)C1=O ... > 10 µM
2) CCCCN(Cc1ccccc1)C[C@H](O)CN1CN(c2ccc(F)cc2)C2(CCN(Cc3cc(C(F)(F)F)cc(C(F)(F)F)c3)CC2)C1=O ... ≥ 10 µM

State its IC50 for this compound: Cc1cccc2cccc(CN3CCC4(CC3)C(=O)N(C[C@@H](O)CN(Cc3ccccc3)C(C)(C)C)CN4c3ccc(F)cc3)c12 > 10 µM

State its IC50 for this compound: CN(C)CCN(Cc1ccccc1)C[C@H](O)CN1CN(c2ccc(F)cc2)C2(CCN(Cc3cc(C(F)(F)F)cc(C(F)(F)F)c3)CC2)C1=O ≥ 10 µM

###

Listed next: entries and their corresponding IC50.
# TARGET_OR_SYSTEM: mu opioid receptor (Homo sapiens, UniProt P35372)
# Sequence (P35372 whole entry): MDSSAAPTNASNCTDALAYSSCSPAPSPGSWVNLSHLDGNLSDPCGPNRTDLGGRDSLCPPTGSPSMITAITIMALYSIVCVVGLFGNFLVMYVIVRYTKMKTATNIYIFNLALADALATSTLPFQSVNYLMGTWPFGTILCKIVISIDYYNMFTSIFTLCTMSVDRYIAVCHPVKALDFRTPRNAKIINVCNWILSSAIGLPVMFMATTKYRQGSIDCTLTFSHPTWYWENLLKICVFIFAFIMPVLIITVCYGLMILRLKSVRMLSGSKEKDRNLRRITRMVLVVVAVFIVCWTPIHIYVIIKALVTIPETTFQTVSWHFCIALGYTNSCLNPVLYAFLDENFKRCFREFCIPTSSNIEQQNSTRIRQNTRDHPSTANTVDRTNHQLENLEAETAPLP
# PROTOCOL_SUMMARY: Filtration binding assay: mu opioid receptor
Respond numerically; units are µM and should not be typed.

Consider the following illustrative entries.
1. COC(=O)C(N)CSC[C@H](O)CN1CN(c2ccc(F)cc2)C2(CCN(CC3CCCCCCC3)CC2)C1=O (stereo partly shown) ... 0.9
2. O=C1N(C[C@@H](O)CNCc2ccc(C(F)(F)F)cc2)CN(c2ccc(F)cc2)C12CCN(CC1CCCCCCC1)CC2 ... 5.41
3. CCCCNC[C@H](O)CN1CN(c2ccc(F)cc2)C2(CCN(CC3CCCCCCC3)CC2)C1=O ... 0.51
4. COc1cc(OC)c(CNC[C@H](O)CN2CN(c3ccc(F)cc3)C3(CCN(C4Cc5cccc6cccc4c56)CC3)C2=O)c(OC)c1 (mixture of isomers) ... 1.86

Now for a further compound.
State its IC50 for this compound: O=C1N(C[C@@H](O)CNCc2ccccn2)CN(c2ccc(F)cc2)C12CCN(CC1CCCCCCC1)CC2 8.83

###

# TARGET_OR_SYSTEM: kappa opioid receptor (Homo sapiens)
# PROTOCOL_SUMMARY: Filtration binding assay: kappa opioid receptor
Listed next: entries and their corresponding pIC50.
Entry type: numeric. Quantity: pIC50, the -log10 of concentration in molar units.

Consider the following illustrative entries.
1. COc1ccccc1CNC[C@H](O)CN1CN(c2ccc(F)cc2)C2(CCN(CC3CCCCCCC3)CC2)C1=O ... 6.40
2. COc1cccc(CNC[C@H](O)CN2CN(c3ccc(F)cc3)C3(CCN(CC4CCCCCCC4)CC3)C2=O)c1 ... 6.18
3. CCN(CC)C(=O)C1CCCN(C[C@H](O)CN2CN(c3ccc(F)cc3)C3(CCN(Cc4cc(C(F)(F)F)cc(C(F)(F)F)c4)CC3)C2=O)C1 (stereo partly drawn) ... 5.60
4. Cc1ccc(CNC[C@H](O)CN2CN(c3ccc(F)cc3)C3(CCN(CC4CCCCCCC4)CC3)C2=O)cc1 ... 6.60
5. COc1ccc(CNC[C@H](O)CN2CN(c3ccc(F)cc3)C3(CCN(Cc4cccc5cccc(C)c45)CC3)C2=O)cc1 ... 6.60

State pIC50 (kappa opioid receptor (Homo sapiens)) of COC(=O)C(N)CSC[C@H](O)CN1CN(c2ccc(F)cc2)C2(CCN(CC3CCCCCCC3)CC2)C1=O (stereo partly drawn) . 6.08

State pIC50 (kappa opioid receptor (Homo sapiens)) of COc1ccc(CNC[C@H](O)CN2CN(c3ccc(F)cc3)C3(CCN(C4Cc5cccc6cccc4c56)CC3)C2=O)cc1OC (mixture of isomers) . 6.68

State pIC50 (kappa opioid receptor (Homo sapiens)) of O=C1N(C[C@@H](O)CNCCc2c[nH]cn2)CN(c2ccc(F)cc2)C12CCN(CC1CCCCCCC1)CC2 . 6.74
